- test system: Human PKMYT1 (Homo sapiens, UniProt Q99640)
- Construct: Human PKMYT1 75-362 was cloned as a TEV cleavable 6xHis fusion; 6xHis (TEV cleavable) (cleaved yes); made in house; host or cells: bacterial cells
- Sequence (Q99640 75-362): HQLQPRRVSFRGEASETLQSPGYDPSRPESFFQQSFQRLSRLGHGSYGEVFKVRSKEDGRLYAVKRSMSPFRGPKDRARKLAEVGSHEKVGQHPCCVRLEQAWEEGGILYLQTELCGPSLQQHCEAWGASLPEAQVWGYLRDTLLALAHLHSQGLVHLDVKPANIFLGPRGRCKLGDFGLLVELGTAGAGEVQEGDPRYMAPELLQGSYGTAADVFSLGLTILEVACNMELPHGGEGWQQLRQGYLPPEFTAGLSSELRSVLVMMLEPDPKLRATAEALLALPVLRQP
- test: PKMYT1 biochemical ADP-Glo enzymatic assay
- experimental conditions: PKMYT1 kinase domain 15 nM; ADP-Glo; banded values
measure name: IC50

Guide cases for IC50, answers given:
[[record]]
compound = "Cc1ccc(F)c(Nc2ncc(C(=O)Nc3c(C)ccc(O)c3C)s2)n1"
test_system = "Human PKMYT1 (Homo sapiens, UniProt Q99640)"
measured = "< 0.05 µM"

[[record]]
compound = "Cn1cc(Br)c(Nc2ncc(C(=O)Nc3c(Cl)ccc(O)c3F)s2)n1"
test_system = "Human PKMYT1 (Homo sapiens, UniProt Q99640)"
measured = "0.05 to 1 µM"

[[record]]
compound = "Cc1ccc(O)c(C)c1NC(=O)c1cnc(Nc2nccc3cccnc23)s1"
test_system = "Human PKMYT1 (Homo sapiens, UniProt Q99640)"
measured = "< 0.05 µM"

[[record]]
compound = "Cc1ccc(O)c(C)c1NC(=O)c1cnc(Nc2cc(C(=O)N3CCCC3)n(C)n2)s1"
test_system = "Human PKMYT1 (Homo sapiens, UniProt Q99640)"
measured = "0.05 to 1 µM"


Fill in: IC50 of "Cn1ccc(Nc2ncc(C(=O)Nc3c(Cl)ccc(O)c3F)s2)n1" is ___
0.05 to 1 µM

Fill in: IC50 of "Cc1ccc(O)c(C)c1NC(=O)c1cnc(Nc2nn(CC(F)F)cc2Br)s1" is ___
< 0.05 µM

Fill in: IC50 of "Cc1cn(-c2ncc(C(=O)Nc3c(C)ccc(O)c3C)s2)nc1Nc1ncc(C(=O)Nc2c(C)ccc(O)c2C)s1" is ___
0.05 to 1 µM

Fill in: IC50 of "Cc1ccc(O)c(C)c1NC(=O)c1cnc(Nc2nccc3ccncc23)s1" is ___
0.05 to 1 µM

Fill in: IC50 of "Cc1ccc(O)c(C)c1NC(=O)c1cnc(Nc2nccn2C)s1" is ___
0.05 to 1 µM

Fill in: IC50 of "Cc1ccc(O)c(C)c1NC(=O)c1cnc(Nc2cccc(C3CC3)n2)s1" is ___
< 0.05 µM

Fill in: IC50 of "Cc1ccc(O)c(C)c1NC(=O)c1cnc(Nc2cc(N3CCN(C)CC3)ncn2)s1" is ___
< 0.05 µM

Fill in: IC50 of "C#Cc1cccc(Nc2ncc(C(=O)Nc3c(C)ccc(O)c3C)s2)n1" is ___
0.05 to 1 µM

Fill in: IC50 of "Cc1cn(CC(=O)N(C)CCO)nc1Nc1ncc(C(=O)Nc2c(C)ccc(O)c2C)s1" is ___
< 0.05 µM

----------
- test system: WEE1 (Homo sapiens)
- Construct: purchased Thermo Fisher PR7373A
- test: Selectivity versus WEE1 assay (ADP-Glo enzymatic assay)
- Type: biochemical
- experimental conditions: fold difference in selectivity for PKMYT1 over WEE1; banded; ">N" = at least in this band but could be higher
Structures can show the parent of a compound that is named as a salt.
measure name: PKMYT1 vs. WEE1 selectivity

[[record]]
molecule = "Cc1ccc(O)c(C)c1NC(=O)c1cnc(Nc2ccn(CC(=O)N3CC4(C3)CN(C(=O)OC(C)(C)C)C4)n2)s1"
measured = "X (100-<1000 fold)"

[[record]]
molecule = "Cc1ccc(O)c(C)c1NC(=O)c1cnc(Nc2ncc[nH]2)s1"
measured = ">W (10-<100 fold)"

[[record]]
molecule = "Cc1cn(-c2cccc(F)c2)nc1Nc1ncc(C(=O)Nc2c(C)ccc(O)c2C)s1"
measured = "Y (1000-5000 fold)"

[[record]]
molecule = "Cc1cn(CC(F)(F)F)nc1Nc1ncc(C(=O)Nc2c(C)ccc(O)c2C)s1"
measured = "X (100-<1000 fold)"

[[record]]
molecule = "Cc1ccc(O)c(C)c1NC(=O)c1cnc(NCC2CCNCC2)s1 [BAA-079, hydrochloride]"
measured = ">W (10-<100 fold)"


Next molecule, please.
Fill in: PKMYT1 vs. WEE1 selectivity of "Cc1ccc(O)c(C)c1NC(=O)c1cnc(Nc2ccn(CC(=O)NC[C@@H](C)O)n2)s1" is ___
Y (1000-5000 fold)

----------
- test system: WEE1 (Homo sapiens, UniProt P30291)
- Construct: purchased Thermo Fisher PR7373A
- Sequence (P30291 whole entry): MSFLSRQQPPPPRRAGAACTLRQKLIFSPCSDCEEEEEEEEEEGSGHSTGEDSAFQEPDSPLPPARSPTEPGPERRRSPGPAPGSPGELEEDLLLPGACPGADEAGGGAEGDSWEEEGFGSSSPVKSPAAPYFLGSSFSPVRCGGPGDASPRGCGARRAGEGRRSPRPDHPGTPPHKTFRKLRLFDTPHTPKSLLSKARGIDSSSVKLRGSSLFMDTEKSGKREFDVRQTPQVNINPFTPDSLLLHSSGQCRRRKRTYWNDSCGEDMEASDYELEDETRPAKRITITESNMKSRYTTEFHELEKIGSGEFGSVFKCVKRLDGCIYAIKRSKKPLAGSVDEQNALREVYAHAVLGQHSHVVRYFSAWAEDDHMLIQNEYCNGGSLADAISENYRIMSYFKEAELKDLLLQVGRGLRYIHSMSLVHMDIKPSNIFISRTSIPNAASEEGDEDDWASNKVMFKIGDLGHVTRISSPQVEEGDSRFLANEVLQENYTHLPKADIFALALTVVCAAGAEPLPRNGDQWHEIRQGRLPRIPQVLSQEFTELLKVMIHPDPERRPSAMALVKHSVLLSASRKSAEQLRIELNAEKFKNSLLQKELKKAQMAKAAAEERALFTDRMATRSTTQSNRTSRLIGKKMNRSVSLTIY
- test: Selectivity versus WEE1 assay (ADP-Glo enzymatic assay)
- Type: biochemical
- experimental conditions: fold difference in selectivity for PKMYT1 over WEE1; banded; ">N" = at least in this band but could be higher
measure name: PKMYT1 vs. WEE1 selectivity

Guide cases for PKMYT1 vs. WEE1 selectivity, answers given:
[[record]]
molecule = "CCN1CCN(C(=O)Cn2ccc(Nc3ncc(C(=O)Nc4c(C)ccc(O)c4C)s3)n2)CC1 [BAA-177]"
measure_name = "PKMYT1 vs. WEE1 selectivity"
measured = "X (100-<1000 fold)"

[[record]]
molecule = "Cc1ccc(O)c(C)c1NC(=O)c1cnc(Nc2ccc(F)c(C#N)c2)s1 [BAA-282]"
measure_name = "PKMYT1 vs. WEE1 selectivity"
measured = "W (10-<100 fold)"

[[record]]
molecule = "COCCn1ccc(Nc2ncc(C(=O)Nc3c(C)ccc(O)c3C)s2)n1 [BAA-040]"
measure_name = "PKMYT1 vs. WEE1 selectivity"
measured = "X (100-<1000 fold)"

[[record]]
molecule = "Cc1ccc(O)c(C)c1NC(=O)c1cnc(Nc2nc3ccccc3o2)s1 [BAA-044]"
measure_name = "PKMYT1 vs. WEE1 selectivity"
measured = ">X (100-<1000 fold)"

[[record]]
molecule = "Cc1cn(-c2cnn(C(C)C)c2)nc1Nc1ncc(C(=O)Nc2c(C)ccc(O)c2C)s1 [BAA-391]"
measure_name = "PKMYT1 vs. WEE1 selectivity"
measured = "X (100-<1000 fold)"

[[record]]
molecule = "Cc1ccc(O)c(C)c1NC(=O)c1cnc(Nc2ccn(CC(=O)N3CCC(C)(C)CC3)n2)s1 [BAA-137]"
measure_name = "PKMYT1 vs. WEE1 selectivity"
measured = "Y (1000-5000 fold)"

[[record]]
molecule = "Cc1ccc(O)c(C)c1NC(=O)c1cnc(Nc2ccn(CC(=O)N3CC(F)(F)C(F)(F)C3)n2)s1 [BAA-181]"
measure_name = "PKMYT1 vs. WEE1 selectivity"
measured = "Y (1000-5000 fold)"

[[record]]
molecule = "Cc1ccc(O)c(C)c1NC(=O)c1cnc(Nc2cc(C3CC3)n(C)n2)s1 [BAA-245]"
measure_name = "PKMYT1 vs. WEE1 selectivity"
measured = "Y (1000-5000 fold)"


Fill in: PKMYT1 vs. WEE1 selectivity of Cc1ccc(O)c(C)c1NC(=O)c1cnc(Nc2cc(C(N)=O)nn2C)s1 [BAA-131] is ___
Y (1000-5000 fold)

Fill in: PKMYT1 vs. WEE1 selectivity of Cc1ccc(O)c(C)c1NC(=O)c1cnc(NCc2nccn2C)s1 [BAA-362] is ___
W (10-<100 fold)

Fill in: PKMYT1 vs. WEE1 selectivity of COCc1cc(Nc2ncc(C(=O)Nc3c(C)ccc(O)c3C)s2)nn1C [BAA-252] is ___
X (100-<1000 fold)

Fill in: PKMYT1 vs. WEE1 selectivity of Cc1ccc(O)c(C)c1NC(=O)c1cnc(NCCCN2CCOCC2)s1 [BAA-065] is ___
>X (100-<1000 fold)

----------
- test system: WEE1 (Homo sapiens, UniProt P30291)
- Construct: purchased Thermo Fisher PR7373A
- test: Selectivity versus WEE1 assay (ADP-Glo enzymatic assay)
- Type: biochemical
- experimental conditions: ADP-Glo; 15 nM WEE1, 60 minutes at 26° C.; banded
pIC50: −log10 of the molar value.
measure name: pIC50

[[record]]
compound = "COc1ccccc1CNc1ncc(C(=O)Nc2c(C)ccc(O)c2C)s1 [BAA-355]"
measured = "< 4.96"

[[record]]
compound = "CCCCCCCNC(=O)Cn1ccc(Nc2ncc(C(=O)Nc3c(C)ccc(O)c3C)s2)n1 [BAA-135]"
measured = "4.96 to 6.00"

[[record]]
compound = "Cc1ccc(O)c(C)c1NC(=O)c1cnc(Nc2cccc(C(=O)NC(C(C)C)C(F)(F)F)c2)s1 (stereo not drawn) [BAA-259]"
measured = "< 4.96"

[[record]]
compound = "Cc1ccc(O)c(C)c1NC(=O)c1cnc(NCC2CC2)s1 [BAA-347]"
measured = "< 4.96"

[[record]]
compound = "CCOc1ccc(-n2cc(C)c(Nc3ncc(C(=O)Nc4c(C)ccc(O)c4C)s3)n2)cn1 [BAA-369]"
measured = "< 4.96"

[[record]]
compound = "Cc1cn(-c2cc(Cl)cnc2F)nc1Nc1ncc(C(=O)Nc2c(C)ccc(O)c2C)s1 [BAA-377]"
measured = "4.96 to 6.00"

[[record]]
compound = "Cc1ccc(O)c(C)c1NC(=O)c1cnc(NC2CC2)s1 [BAA-061]"
measured = "< 4.96"

[[record]]
compound = "Cc1ccc(O)c(C)c1NC(=O)c1cnc(Nc2ccn(CC(=O)N3CCN(C4CC4)CC3)n2)s1 [BAA-182]"
measured = "< 4.96"


Next compound, please.
Fill in: pIC50 of COc1cc(-c2cccc(Nc3ncc(C(=O)Nc4c(C)ccc(O)c4C)s3)n2)cc(OC)c1OC [BAA-317] is ___
< 4.96

Numbers sourced from patent US20260297042A1.
